Taken from PubChem BioAssay (EPA / NIEHS).

Molecular target: human CYP2J2, CYP2J2 (gene 1573)
Assay: NVS_ADME_hCYP2J2: NovaScreen (NVS) CYP450-related Enzyme Activity (ADME) Assay for human CYP2J2 (AID 2283106)
Results filed as inconclusive are left out. The source made the active and inactive calls. How the source made its calls: active means hit-call score of the fitted dose curve at least 0.9, where 1 is the maximum; inconclusive means response in the unintended direction; inactive means score below 0.9.
Outcome codes: active, inactive

| compound | class label |
| --- | --- |
| CCCOCC(=Nc1ccc(Cl)cc1C(F)(F)F)n1ccnc1 | active |
| CSc1nc(NC(C)C)nc(NC(C)C)n1 | inactive |
| C#CCC1=C(C)C(OC(=O)C2C(C=C(C)C)C2(C)C)CC1=O (centres undefined) | active |
| CCOP(=S)(OCC)Oc1ccc([N+](=O)[O-])cc1 | active |
